- Study system: UniProtKB Q8ILY1
- Sequence (Q8ILY1 entry or part of it): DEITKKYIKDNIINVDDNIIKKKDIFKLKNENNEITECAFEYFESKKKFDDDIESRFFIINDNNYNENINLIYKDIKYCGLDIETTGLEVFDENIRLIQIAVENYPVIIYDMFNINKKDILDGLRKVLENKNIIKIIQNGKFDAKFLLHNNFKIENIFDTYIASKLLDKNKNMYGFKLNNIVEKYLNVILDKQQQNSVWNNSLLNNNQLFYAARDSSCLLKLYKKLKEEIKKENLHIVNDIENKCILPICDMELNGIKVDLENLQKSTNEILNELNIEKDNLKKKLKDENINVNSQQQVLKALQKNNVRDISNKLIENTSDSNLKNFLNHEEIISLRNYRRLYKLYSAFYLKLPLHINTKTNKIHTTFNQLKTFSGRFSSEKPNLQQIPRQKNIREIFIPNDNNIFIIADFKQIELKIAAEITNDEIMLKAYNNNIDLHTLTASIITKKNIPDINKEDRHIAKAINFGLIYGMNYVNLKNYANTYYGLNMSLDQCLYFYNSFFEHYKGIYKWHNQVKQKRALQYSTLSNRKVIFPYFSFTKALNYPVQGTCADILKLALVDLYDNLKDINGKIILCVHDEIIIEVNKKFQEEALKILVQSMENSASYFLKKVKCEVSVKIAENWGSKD
- Assay info: Fluorescence-based high-throughput DNA polymerase assay (molecular beacon), primary screen and dose-response
- Format: biochemical
- Protocol conditions: DRC-1; 90'; concentration 20
Quick reference: % inhibition Apol 90' of the listed items.
Answer as a quantity: numeral, then unit.

Lookup: % inhibition Apol 90' / UniProtKB Q8ILY1 / O=C(Nc1nnc(-c2ccno2)o1)c1ccc2c(c1)OCO2 [KU0171343] 8.774%

Consider next the molecule O=[N+]([O-])c1cc2c(cc1CN1CCN(c3cccc(Cl)c3)CC1)OCO2 [KU0005610] in the same way. 40.3549%

Consider next the molecule O=C(O)c1cccc(N2N=C(C(F)(F)F)/C(=C/c3ccc(-c4ccccc4[N+](=O)[O-])o3)C2=O)c1 [Molecule 100] in the same way. 83.4364%

Consider next the molecule O=C(O)c1c(F)c(F)c(-c2c(F)c(F)c(C(=O)O)c(F)c2F)c(F)c1F [KU0008974] in the same way. 33.67%
